# Tested on: HCT116 (colon)
# measurement-protocol: In vitro cytotoxic activity (MTT) assay, HCT116
# Format: cell-based
# test-parameters: Homo sapiens, HCT-116; HCT116 cells, exposed for 96 hours; read-out: IC50, 50% inhibition of cell proliferation, HCT116 (colon)

smiles-record: O=C(O)c1cc2nc(Nc3cccc(Cl)c3)c3cnccc3c2[nH]1
IC50, nM: 1300
